- measurement.description: in vivo pharmacokinetics, plasma anastrozole by LC-MS/MS
- Design: species or system female Sprague-Dawley rats
- protocol.conditions: female, Sprague-Dawley, rat, plasma, sc; single s.c. injection of solution, high and low dose; read-out: apparent terminal elimination half-life (converted)
measured.attribute: half-life

Exam item: Tell me the measured half-life of CC(C)(C#N)c1cc(Cn2cncn2)cc(C(C)(C)C#N)c1 [anastrozole] , please.
Marked response: ~360 min

These entries and their values trace back to patent US20150238617A1.
